- assayComment: hepatitis C replication reporter changes, two-sided – Huh7 cells, luciferase reporter, HCV replication inhibitor project, primary screen (AID 1109);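 also: huh7 hepatoma cells harbouring a luciferase neomycin HCV replicon reporter; luciferase luminescence as measure of HCV replicon replication; test concentration not given here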
- assaySetup: Huh7 HCV replicon luciferase reporter, 48 h; higher = more signal
assayEndpoint: z-score

smilesInput	testResult
COCCOC(=O)N1C(=O)[C@@]2(c3cc(C#CCC(C(=O)OC)C(=O)OC)ccc31)[C@H](C(=O)Nc1nc3ccccc3s1)[C@H]1C(=O)O[C@H](c3ccccc3)[C@H](c3ccccc3)N1[C@@H]2c1ccc(O)cc1	-0.146
C=CCOC(=O)[C@H]1[C@@H]2C(=O)O[C@@H](c3ccccc3)[C@@H](c3ccccc3)N2[C@@H](c2ccc(OCCOC(=O)[C@@H]3C[C@@H]4C(=O)N[C@@H](CCCC[N+](C)(C)C)C(=O)N4[C@@H]3c3ccc(O)cc3)cc2)[C@]12C(=O)Nc1ccc(I)cc12	-2.84
O=C1N(Cc2ccccc2)c2ccccc2C[C@@]12COC(c1ccc(OCCCO)cc1)=N2	-1.08
O=C1O[C@@H](c2ccccc2)[C@@H](c2ccccc2)N2[C@@H](c3ccc(OCCO)cc3)[C@]3(C(=O)Nc4ccc(C#CC5(O)CCCCCC5)cc43)[C@@H](C(=O)O)[C@H]12	-0.687
COC(=O)C(CC#Cc1ccc2c(c1)[C@]1(C(=O)N2)[C@H](c2ccccc2OCCO)N2[C@H](c3ccccc3)[C@H](c3ccccc3)OC(=O)[C@H]2[C@@H]1C(=O)N1CCc2cc(OC)c(OC)cc2C1)C(=O)OC	-1.68
O=C(NC1CC1)[C@@H]1c2ccccc2C(=O)N(Cc2cc(C(F)(F)F)cc(C(F)(F)F)c2)[C@H]1c1ccc(CO)cc1	-1.02

====

- assayComment: compound effects on multiple myeloma cell viability – MM1S, calcein-AM fluorescence, 48 h, basal, profiling panel (AID 1165);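 also: viability of MM1S multiple myeloma cells under basal unstimulated conditions; test concentration not given here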
- assaySetup: higher = more signal

molecule	z-score
O=C1OCCC=C[C@H]2OC34C=CCN(c5ccc6ccccc6c5)C(=O)[C@H]3N(CCO)C(=O)[C@@H]4C12 (some centres undefined)	0.508
NCCCCCCNC(=O)[C@@H]1C[C@@H]2C(=O)N3CCC[C@H]3C(=O)N2[C@@H]1c1cccc(OCCO)c1	0.597
CCCc1cc2c(n1CCc1ccc(Cl)cc1)C(C)C1CN(C(=O)c3ccccc3)C(C)(C(=O)OC)C21 (centres undefined)	-3.25
COC(=O)[C@@]1(Cc2ccc(OC)cc2)[C@H]2c3cc(C(=O)N4CCCC4)n(Cc4ccc(C(F)(F)F)nc4)c3C[C@H]2CN1C(=O)c1ccccc1	-1.03
CO[C@H]1O[C@H](CO)[C@@H](OC(=O)Nc2ccccc2)[C@H](OC(=O)Nc2ccccc2)[C@H]1OC(=O)Nc1ccccc1	-0.77
C=CC1c2cc(O)c(OC)cc2CCN1C (centres undefined)	0.121
C=CCOC(=O)[C@@H]1[C@H]2C(=O)O[C@H](c3ccccc3)[C@H](c3ccccc3)N2[C@H](c2ccc(OCCOC(=O)[C@H]3C[C@H]4C(=O)NCC(=O)N4[C@H]3c3cccc(OCCO)c3)cc2)[C@@]12C(=O)Nc1ccc(I)cc12	0.464
O=C1O[C@H](c2ccccc2)[C@H](c2ccccc2)N2[C@H]1[C@@H](C(=O)N1CCN(c3ncccn3)CC1)[C@]1(C(=O)Nc3ccc(C#CCCO)cc31)[C@H]2c1ccc(O)cc1	-0.0982
CCOC(=O)C1=CC[C@@H](c2ccccc2)N(S(=O)(=O)c2ccc(C)cc2)[C@H]1c1ccccc1I	-0.676
COc1ccc([Si](C)(C)[C@@H]2[C@@H](CC(=O)N3Cc4ccccc4C[C@H]3CO)O[C@]3(C(=O)N(Cc4ccc(N5CCOC5=O)cc4)c4ccccc43)[C@H]2C)cc1	-1.07
COc1ccc([Si](C)(C)[C@@H]2[C@@H](CC(=O)N(CCO)Cc3ccccc3)O[C@]3(C(=O)N(Cc4ccc(I)cc4)c4ccccc43)[C@H]2C)cc1	-2.54
O=C1[C@H]2C=C(I)[C@H](C[C@@H]2c2ccccc2)[C@@]12CO2	-3.18
Cc1ccc(S[C@]2(C(=O)NCc3ccccc3)CC(=O)N(Cc3ccccc3C(F)(F)F)[C@@H]2c2ccc(CO)cc2)cc1	0.0811
O=C(O)[C@H](Cc1ccccc1)n1cc(C2(O)CCCCC2)nn1	-0.364

====

- assayComment: probe aLefty2 binding to arrayed compounds – biochemical, biotinylated probe, 635/667 nm fluorescence, primary screen (AID 1094);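 also: score merges spot fluorescence near 667 nm with spot signal-to-noise ratio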
- assaySetup: small-molecule microarray, higher = more signal
assayEndpoint: composite z-score

molecule	testResult
COC(=O)[C@H](Cc1ccc(O)cc1)N[C@@H](/C=C/C1CC1)[C@H](O)Cc1ccccc1	-0.251
COC(=O)[C@@]1(Cc2ccccc2)N=C(c2ccc(OCCCO)cc2)O[C@H]1c1ccccc1CN=[N+]=[N-]	-0.0747
O=C1O[C@H](c2ccccc2)[C@H](c2ccccc2)N2[C@H]1[C@@H](C(=O)N1CCN(c3ncccn3)CC1)[C@]1(C(=O)Nc3ccc(C#CCCO)cc31)[C@H]2c1ccc(O)cc1	-0.0784
CC(C)(C)N1CC=CC23O[C@@H]4/C=C\CCCOC(=O)C4[C@H]2C(=O)N(CCCO)[C@@H]3C1=O (some centres undefined)	-0.279
C#CCN1[C@@H](Cc2ccccc2)C(=O)O[C@H](Cc2ccccc2)[C@@H]1/C=C/C1CC1	-0.185
COC(=O)[C@@]1(Cc2ccccc2)[C@H]2c3cc(C(=O)N(C)C)n(Cc4ccc(S(C)(=O)=O)cc4)c3C[C@H]2CN1C(=O)c1ccccc1	0.384
COC(=O)[C@@]1(Cc2ccc(F)cc2)[C@H]2c3cc(C(=O)N4CCCC4)n(CCc4ccccn4)c3C[C@H]2CN1C(=O)c1ccccc1	0.181
C=C(COC)/C(=C/C[C@@H](OC(C)=O)c1ccccc1OCCO)c1cnc2ccccc2c1	-0.154
C[C@]1(C(=O)O)c2ccccc2C(=O)N(Cc2cc(F)cc(C(F)(F)F)c2)[C@H]1c1ccc(CO)cc1	-0.153
[N-]=[N+]=Nc1ccccc1C[C@@]1(C(=O)NCC(O)CO)N=C(c2ccc(OCCCO)cc2)O[C@@H]1c1ccccc1 (some centres undefined)	-0.0021
CCOC(=O)C[C@H]1[C@H](OC(=O)c2cc3ccccc3oc2=O)[C@@H](NC(=O)CC(C)C)c2cc(OCCCO)ccc2N1C(=O)Cc1ccc(OC)cc1	-0.165
CC=CC(O)C1C=CC2C(=O)NC(=O)C2N1Nc1ccc(Cl)cc1Cl (centres undefined)	0.0598
C=CCOC(=O)[C@@H]1[C@H]2C(=O)O[C@H](c3ccccc3)[C@H](c3ccccc3)N2[C@H](c2ccc(OCCOC(=O)[C@H]3C[C@H]4C(=O)N[C@@H](CCCCN(C)C)C(=O)N4[C@H]3c3ccc(O)cc3)cc2)[C@@]12C(=O)Nc1ccc(I)cc12	-0.0686
O=C(NCc1ccc(F)cc1)[C@H]1C[C@H]2C(=O)N3CCC[C@H]3C(=O)N2[C@H]1c1ccc(O)cc1	-0.0963

====

- assayComment: ATP-based viability of Huh7 replicon cells – cell-based, CellTiter-Glo luminescence, basal, 48 h, cytotoxicity control for HCV replication inhibitor project, primary screen (AID 1143);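 also: Huh7 hepatoma cells carrying a hepatitis C replication reporter with no stimulus; test concentration not given here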
- assaySetup: higher = more signal, called active from +8 up or from −8 down
assayEndpoint: z-score

compound	assayEndpoint	testResult
NC(=O)N1C(=O)C2C(C1=O)C1C=C(CCCO)C2C(c2ccc(CN3CCCC3)cc2)N1Cc1cc2c(cc1Br)OCO2 (stereo not drawn)	z-score	-1.34
CC(=O)c1ccc(C(O)C2C=CC3C(=O)N(c4ccccc4)C(=O)C3N2Nc2ccc(C(C)C)cc2)cc1 (stereo not drawn)	z-score	-1.16
O=C(O)[C@H](Cc1ccccc1)n1cc(C2(O)CCCCC2)nn1	z-score	0.316
CC(C)C(=C=CC[C@H](O)c1ccccc1OCCO)C[C@H](O)COCc1ccccc1	z-score	-2.03
O=C(NCCN1CCOCC1)[C@@H]1c2ccccc2C(=O)N(Cc2ccccc2C(F)(F)F)[C@H]1c1ccc(CO)cc1	z-score	-0.0154
CC(C)N1C(=O)c2ccccc2[C@](C)(C(=O)NCC(F)(F)F)[C@@H]1c1ccc(CO)cc1	z-score	-0.167
CCCCC(O)C1C=CC2C(=O)N(c3ccccc3)C(=O)C2N1Nc1ccc([N+](=O)[O-])cc1 (stereo not drawn)	z-score	-3.32
COc1ccc([Si](C)(C)[C@@H]2[C@@H](CC(=O)N3CCC[C@H]3CO)O[C@]3(C(=O)N(Cc4ccc(N5CCOC5=O)cc4)c4ccccc43)[C@H]2C)cc1	z-score	-3.75

====

- assayComment: forskolin-driven CRE-LacZ activity in PC12 – cell-based, CRE-LacZ reporter, forskolin-stimulated, primary screen (AID 1146);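 also: PC12 cells with 6xCRE LacZ reporter stimulated by forskolin 10 µM; beta-galactosidase reporter signal reflecting CREB driven transcription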
- assaySetup: luminescence, 4.5 h, higher = more signal, called active from +8 up or from −8 down
Parameter: z-score. Scope: all listed entries.

molecule	z-score
N#Cc1ccc(NN2C(C(O)C3CC=CCC3)C=CC3C(=O)N(c4ccccc4)C(=O)C32)cc1 (stereo not drawn)	0.516
COCCOC(=O)N1C(=O)[C@@]2(c3cc(C#Cc4ccc(OC)cc4)ccc31)[C@H](c1ccc(OCCO)cc1)N1[C@H](c3ccccc3)[C@H](c3ccccc3)OC(=O)[C@H]1[C@@H]2C(=O)NC[C@H](O)c1ccccc1	0.003
COc1ccc([Si](C)(C)[C@H]2[C@H](CCO)O[C@@]3(C(=O)N(Cc4cccc(N5C(=O)c6ccccc6Oc6ccccc65)c4)c4ccccc43)[C@@H]2C)cc1	-1.1
CC(=O)c1ccc(C(O)C2C=CC3C(=O)N(c4ccccc4)C(=O)C3N2Nc2ccc(C(C)C)cc2)cc1 (stereo not drawn)	-0.17
CCOc1cc(C(O)C2C=CC3C(=O)N(c4ccccc4)C(=O)C3N2Nc2ccccc2F)ccc1O (stereo not drawn)	0.63
C=CCNC(=O)[C@H]1[C@@H]2C(=O)O[C@@H](c3ccccc3)[C@@H](c3ccccc3)N2[C@@H](c2ccc(OCCO)cc2)[C@]12C(=O)Nc1ccc(C#CC3(O)CCCCCC3)cc12	0.566
C=CCN1Cc2ccccc2[C@H]2OC(c3ccc(OCCCO)cc3)=N[C@@]2(CCS(=O)(=O)c2ccccc2)C1=O	-1.27
COc1ccc([Si](C)(C)[C@@H]2[C@@H](CC(=O)N(CCO)Cc3ccccc3)O[C@]3(C(=O)N(Cc4ccc(I)cc4)c4ccccc43)[C@H]2C)cc1	-0.905
CC(C)C[C@@H]1NC(=O)[C@@H]2C[C@H](C(=O)NCCCCCCNC(=O)CS)[C@H](c3cccc(OCCO)c3)N2C1=O	0.0025
NCCCCCCNC(=O)[C@@H]1C[C@@H]2C(=O)N3CCC[C@H]3C(=O)N2[C@@H]1c1cccc(OCCO)c1	-1.43
CCOC(=O)C[C@H]1[C@H](OC(=O)Cc2ccc3c(c2)OCO3)[C@@H](NC(=O)c2ccc3ccccc3n2)c2cc(OCCCO)ccc2N1C(=O)Cc1ccc(OC)cc1	0.637
COc1ccc(C#Cc2ccc3c(c2)[C@]2(C(=O)N3)[C@H](C(=O)O)[C@H]3C(=O)O[C@H](c4ccccc4)[C@H](c4ccccc4)N3[C@@H]2c2ccccc2OCCO)cc1	4.81
CC(C)=CCCC(C)=CC(O)C1C=CC2C(=O)NC(=O)C2N1Nc1ccc(Cl)cc1Cl (stereo not drawn)	0.501
CC(C)=CCCC=C(C)C(O)C1C=CC2C(=O)N(c3ccccc3)C(=O)C2N1Nc1ccc(C#N)cc1 (stereo not drawn)	-0.35
CC1CC/C=C\[C@H]2OC34C=CCN(C(C)(C)C)C(=O)[C@H]3N(CCCO)C(=O)[C@@H]4C2C(=O)O1 (stereo partly drawn)	-0.539
Cc1ccc(S[C@]2(C(=O)NCc3ccccc3)CC(=O)N(Cc3ccccc3C(F)(F)F)[C@@H]2c2ccc(CO)cc2)cc1	-0.0177
COC(=O)[C@]1(Cc2ccccc2)N=C(c2ccc(OCCCO)cc2)O[C@@H]1c1ccccc1CN=[N+]=[N-]	-1.5
[N-]=[N+]=Nc1ccccc1C[C@@]1(C(=O)NCC(O)CO)N=C(c2ccc(OCCCO)cc2)O[C@@H]1c1ccccc1 (stereo partly drawn)	-0.57
NC(=O)NCC#Cc1ccc2c(c1)[C@]1(C(=O)N2)[C@H](c2ccc(OCCO)cc2)N2[C@H](c3ccccc3)[C@H](c3ccccc3)OC(=O)[C@H]2[C@@H]1C(=O)NC[C@H](O)c1ccccc1	-0.648
CCOC(=O)C[C@H]1[C@H](OC(=O)c2ccccc2-c2ccccc2)[C@@H](NC(=O)C2CCCCC2)c2cc(OCCCO)ccc2N1C(=O)c1ccc2ccccc2n1	1.51
C=CC[C@@]1(C(=O)N(C)C)N=C(c2ccc(OCCCO)cc2)O[C@@H]1c1ccccc1CN=[N+]=[N-]	-0.357
CC(C)N1C(=O)c2ccccc2[C@@H](C(=O)NCC(F)(F)F)[C@@H]1c1ccc(CO)cc1	0.557
[N-]=[N+]=NCc1ccccc1[C@@H]1OC(c2ccc(OCCCO)cc2)=N[C@]1(Cc1ccccc1N=[N+]=[N-])C(=O)NCC(O)CO (stereo partly drawn)	-0.806
CC(C)(C)N1CC=CC23O[C@@H]4/C=C\CCCOC(=O)C4[C@H]2C(=O)N(CCCCCO)[C@@H]3C1=O (stereo partly drawn)	-0.311
CCOC(=O)C1=CC[C@@H](c2ccc(OC)cc2)N(S(=O)(=O)c2ccc(C)cc2)[C@H]1c1ccc(C)cc1	-0.24
CN(C)CCCCNC(=O)[C@H]1C[C@H]2C(=O)NCC(=O)N2[C@H]1c1ccc(O)cc1	-0.489
CCOC(=O)C1=C[C@@H](C(C)(C)C)N(S(=O)(=O)c2ccc(C)cc2)[C@H]1c1ccc(C#N)cc1	0.624
COCCCN1C(=O)[C@@]2(c3ccc([N+](=O)[O-])cc3)CC(=O)N(CC34CC5CC(CC(C5)C3)C4)[C@@H]2c2ccc(CO)cc21	-0.556
